Test system: MDA-MB-231
Experiment: Cytotoxicity against human MDA-MB-231 cells assessed as inhibition of cell survival upto 100 uM incubated for 72 hrs by MTT assay relative to control
Type: functional
Listing of entries alongside the reported inhibition (INH).
Quote the value and follow it with the unit of measurement.

>  <COMPOUND>
CC(=O)O[C@H]1C(=O)[C@@]2(C)[C@H]([C@H](OC(=O)c3ccccc3)[C@]3(O)C[C@H](OC(=O)[C@H](O)[C@@H](NC(=O)c4ccccc4)c4ccccc4)C(C)=C1C3(C)C)[C@]1(OC(C)=O)CO[C@@H]1C[C@@H]2O

>  <inhibition (INH)>
40%

$$$$
>  <COMPOUND>
CC(=O)O[C@@]12CO[C@@H]1C[C@H](O)[C@]1(C)[C@@H]2[C@H](OC(=O)c2ccccc2)C2C[C@H](OC(=O)[C@H](O)[C@@H](NC(=O)c3cc4ccccc4o3)c3ccccc3)C(C)=C([C@@H](O)[C@@H]1O)C2(C)C (stereo partly drawn)

>  <inhibition (INH)>
90%

$$$$
>  <COMPOUND>
CC(=O)O[C@@]12CO[C@@H]1C[C@H](O)[C@]1(C)[C@@H]2[C@H](OC(=O)c2ccccc2)C2C[C@H](OC(=O)[C@H](O)[C@@H](NC(=O)c3ccc(F)cc3)c3ccccc3)C(C)=C([C@@H](O)[C@@H]1O)C2(C)C (stereo partly drawn)

>  <inhibition (INH)>
90%

$$$$

Now let's try a different one.
Problem: Find the measured inhibition (INH): item COc1ccc(C(=O)N[C@@H](c2ccccc2)[C@@H](O)C(=O)O[C@H]2CC3[C@@H](OC(=O)c4ccccc4)[C@@H]4[C@]5(OC(C)=O)CO[C@@H]5C[C@H](O)[C@@]4(C)[C@@H](O)[C@H](O)C(=C2C)C3(C)C)cc1 (stereo partly drawn) , target or system MDA-MB-231.
Result: 90%

----------
System: MDA-MB-231
Assay: Cytotoxicity against human MDA-MB-231 cells assessed as inhibition of cell survival upto 100 uM incubated for 72 hrs by MTT assay relative to control
Format: functional
QUANTITY_NAME: inhibition (INH) (%)
The figure you give is taken to be in %; do not add the unit.

Worked examples, 3 molecules total:
>  <MOLECULE>
CC(=O)O[C@@]12CO[C@@H]1C[C@H](O)[C@]1(C)[C@@H]2[C@H](OC(=O)c2ccccc2)C2C[C@H](OC(=O)[C@H](O)[C@@H](NC(=O)c3ccco3)c3ccccc3)C(C)=C([C@@H](O)[C@@H]1O)C2(C)C (some centres undefined)

>  <inhibition (INH) [%]>
90

$$$$
>  <MOLECULE>
CC(=O)O[C@@]12CO[C@@H]1C[C@H](O)[C@]1(C)[C@@H]2[C@H](OC(=O)c2ccccc2)C2C[C@H](OC(=O)[C@H](O)[C@@H](NC(=O)c3cccs3)c3ccccc3)C(C)=C([C@@H](O)[C@@H]1O)C2(C)C (some centres undefined)

>  <inhibition (INH) [%]>
90

$$$$
>  <MOLECULE>
CCCCCC(=O)N[C@@H](c1ccccc1)[C@@H](O)C(=O)O[C@H]1CC2[C@@H](OC(=O)c3ccccc3)[C@@H]3[C@]4(OC(C)=O)CO[C@@H]4C[C@H](O)[C@@]3(C)[C@@H](O)[C@H](O)C(=C1C)C2(C)C (some centres undefined)

>  <inhibition (INH) [%]>
40

$$$$

Problem: Fill in: inhibition (INH) of CC(=O)O[C@@]12CO[C@@H]1C[C@H](O)[C@]1(C)[C@@H]2[C@H](OC(=O)c2ccccc2)C2C[C@H](OC(=O)[C@H](O)[C@@H](NC(=O)c3ccc(CCl)cc3)c3ccccc3)C(C)=C([C@@H](O)[C@@H]1O)C2(C)C (some centres undefined) is ___
Result: 90
